System: rat dorsal root ganglion (DRG) cells
assay text: Rat dorsal root ganglion (DRG) excitability response to electrical field stimulation
Assay type: cell-based
setup conditions: adult rat DRG cells, Ca5 Ca2+ indicator, six concentrations, highest typically 30 μM, read-out: Scoring: EC50, modulation of rat DRG excitability
readout: EC50

Hey, quick one: what's EC50 for each of these?
1. C=C1CC[C@H]2[C@H](CN)[C@@H]([C@@]3(C)Cc4cnn(-c5ncc(F)cn5)c4C[C@@H]3CO)CC[C@]12C
2. C=C1CC[C@H]2[C@H](CN)[C@@H]([C@@]3(C)Cc4cnn(-c5ccc(C(=O)c6ccccc6)cc5)c4C[C@@H]3CO)CC[C@]12C
3. C=C1CC[C@H]2[C@H](CN)[C@@H]([C@@]3(C)Cc4cn(-c5ccc(Oc6ccccc6)cc5)nc4C[C@@H]3CO)CC[C@]12C
4. C[C@H]1CC[C@H]2[C@H](CN)[C@@H]([C@@]3(C)Cc4cnn(-c5ccc(F)cc5)c4C[C@@H]3CO)CC[C@]12C

["6 to 15 µM", "< 2 µM", "< 2 µM", "< 2 µM"]
